- STUDY_SYSTEM: BCLXL (Homo sapiens, UniProt Q07817, V10N/V9A)
- Sequence (Q07817 with tags, fused parts or gaps V9A/V10N): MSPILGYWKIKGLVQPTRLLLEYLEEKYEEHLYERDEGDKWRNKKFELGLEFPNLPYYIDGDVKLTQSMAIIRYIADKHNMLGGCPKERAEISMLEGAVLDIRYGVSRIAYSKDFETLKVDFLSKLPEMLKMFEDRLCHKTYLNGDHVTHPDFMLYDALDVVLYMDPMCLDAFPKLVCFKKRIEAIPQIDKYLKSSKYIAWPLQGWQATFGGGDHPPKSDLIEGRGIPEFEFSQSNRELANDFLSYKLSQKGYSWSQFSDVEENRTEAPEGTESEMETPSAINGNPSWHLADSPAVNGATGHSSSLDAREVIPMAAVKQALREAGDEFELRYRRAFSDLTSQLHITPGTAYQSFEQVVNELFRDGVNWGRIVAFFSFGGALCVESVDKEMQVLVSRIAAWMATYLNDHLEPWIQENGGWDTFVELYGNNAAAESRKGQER
- METHOD_NOTES: AlphaLISA assay (BIM peptide displacement)
- RECORDED_CONDITIONS: 20 pM protein, 1 nM peptide
pIC50: −log10 of the molar value.
EXPERIMENTAL_ENDPOINT: pIC50

{"columns": ["COMPOUND_STRUCTURE_STRING", "READOUT_NUMBER"],
 "data": [
  ["CN(C)CC#Cc1ccc(OCCCc2sc(N(C)c3cc(C4CC4)c(Nc4nc5ccccc5s4)nn3)nc2C(=O)O)c(F)c1", 9.96],
  ["Cc1cc(N(C)c2ccc(-c3cnn(CC45CC6CC(CC(C6)C4)C5)c3C)c(C(=O)O)n2)nnc1Nc1nc2ccccc2s1", 10.64],
  ["CC(=O)N1CCC(c2sc(N(C)c3cc(C)c(Nc4nc5ccccc5s4)nn3)nc2C(=O)O)CC1", 6.68],
  ["Cc1cc(N(CCCCO)c2nc(C(=O)O)cs2)nnc1Nc1nc2ccccc2s1", 9.32],
  ["Cc1cc(N(CCCCO)c2nc(C(=O)O)c(CCCOc3ccc(C#CCN(CCCS(=O)(=O)O)CCCS(=O)(=O)O)cc3F)s2)nnc1Nc1nc2ccccc2s1", 11.15]
]}

Data credit: patent US12649733B2
